assayed target: AKT2 (human) (UniProt P31751)
Sequence (P31751 whole entry, looked up): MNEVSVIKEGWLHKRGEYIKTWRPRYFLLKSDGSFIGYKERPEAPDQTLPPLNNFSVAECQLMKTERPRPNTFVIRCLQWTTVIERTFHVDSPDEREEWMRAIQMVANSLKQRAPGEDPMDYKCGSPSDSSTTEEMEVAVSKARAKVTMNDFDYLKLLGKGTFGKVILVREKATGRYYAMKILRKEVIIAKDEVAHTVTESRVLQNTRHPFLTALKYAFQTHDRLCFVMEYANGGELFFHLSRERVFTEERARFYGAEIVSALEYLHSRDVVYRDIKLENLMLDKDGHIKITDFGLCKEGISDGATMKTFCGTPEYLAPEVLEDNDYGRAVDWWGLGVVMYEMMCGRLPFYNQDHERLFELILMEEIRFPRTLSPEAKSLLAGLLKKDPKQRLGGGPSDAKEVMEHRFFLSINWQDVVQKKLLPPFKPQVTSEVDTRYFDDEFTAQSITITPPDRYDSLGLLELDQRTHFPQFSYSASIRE
assay: KINOMEscan competition binding
protocol conditions: compound 10.0 µM
Below: a set of entries, each annotated with reported kinase still bound, per cent of control.
Respond with the bare value in %.

compound: COc1cc(N2CCC(C(N)=O)CC2)ccc1Nc1nc(N)c(Cl)c(Nc2ccccc2S(=O)(=O)C(C)C)n1
kinase still bound, per cent of control / %: 100
--
compound: COc1ccc(N(C(=O)Oc2cc(C(=O)Nc3cccc(C(F)(F)F)c3)ccc2C)c2ccnc(Nc3ccc(N4CCN(C)CC4)cc3)n2)c(OC)c1
kinase still bound, per cent of control / %: 100
--
compound: C=CC(=O)Nc1ccc(C(=O)c2sc(Nc3ccc(N4CCN(C)CC4)cc3OC)nc2N)cc1
kinase still bound, per cent of control / %: 100
--
compound: CC1=C(C(=O)Nc2cc3cn[nH]c3cc2F)C(c2ccc(C(F)(F)F)cc2)CC(=O)N1 (configuration not stated)
kinase still bound, per cent of control / %: 64
--
compound: O=c1[nH]c2ccccc2n1C1CCN(Cc2ccc(-c3nc4cc5[nH]cnc5cc4nc3-c3ccccc3)cc2)CC1
kinase still bound, per cent of control / %: 100

Task: Reported kinase still bound, per cent of control for "CCN(CCO)CCCOc1ccc2c(Nc3cc(CC(=O)Nc4cccc(F)c4)[nH]n3)ncnc2c1" : what is it?
Result: 90

Task: Reported kinase still bound, per cent of control for "COc1cc2c(Nc3ccc(NC(=O)c4ccccc4)cc3)ncnc2cc1OCCCN1CCOCC1" : what is it?
Result: 100

Task: Reported kinase still bound, per cent of control for "CCN1CCN(Cc2ccc(NC(=O)c3ccc(C)c(/C=C/c4cnc5[nH]ccc5c4OC)c3)cc2C(F)(F)F)CC1" : what is it?
Result: 48

Data provenance: the kinase profiling compilation of Christmann-Franck et al. (2016)
